target: PSMA on LNCaP cells (Homo sapiens, UniProt Q04609); construct: LNCaP human prostate cancer cells were obtained from American Type Culture Collection; host or cells: LNCaP human prostate cancer cells; assay: Saturation binding analysis of radiolabeled MIP-1072 in LNCaP cells; settings: 4° C., nonlinear regression
Measured property: Kd (nM)
The figure you give is taken to be in nM; do not add the unit.

Memo: O=C(O)CC[C@H](NC(=O)N[C@@H](CCCCNCc1ccc(I)cc1)C(=O)O)C(=O)O , reported Kd: 4.8

----------
target: PSMA (LnCap cells) (Homo sapiens, UniProt Q04609); assay: Scatchard analysis in PSMA cellular binding assay (nonradiolabeled DCIT with I-131 DCIT)
Sequence (Q04609 whole entry): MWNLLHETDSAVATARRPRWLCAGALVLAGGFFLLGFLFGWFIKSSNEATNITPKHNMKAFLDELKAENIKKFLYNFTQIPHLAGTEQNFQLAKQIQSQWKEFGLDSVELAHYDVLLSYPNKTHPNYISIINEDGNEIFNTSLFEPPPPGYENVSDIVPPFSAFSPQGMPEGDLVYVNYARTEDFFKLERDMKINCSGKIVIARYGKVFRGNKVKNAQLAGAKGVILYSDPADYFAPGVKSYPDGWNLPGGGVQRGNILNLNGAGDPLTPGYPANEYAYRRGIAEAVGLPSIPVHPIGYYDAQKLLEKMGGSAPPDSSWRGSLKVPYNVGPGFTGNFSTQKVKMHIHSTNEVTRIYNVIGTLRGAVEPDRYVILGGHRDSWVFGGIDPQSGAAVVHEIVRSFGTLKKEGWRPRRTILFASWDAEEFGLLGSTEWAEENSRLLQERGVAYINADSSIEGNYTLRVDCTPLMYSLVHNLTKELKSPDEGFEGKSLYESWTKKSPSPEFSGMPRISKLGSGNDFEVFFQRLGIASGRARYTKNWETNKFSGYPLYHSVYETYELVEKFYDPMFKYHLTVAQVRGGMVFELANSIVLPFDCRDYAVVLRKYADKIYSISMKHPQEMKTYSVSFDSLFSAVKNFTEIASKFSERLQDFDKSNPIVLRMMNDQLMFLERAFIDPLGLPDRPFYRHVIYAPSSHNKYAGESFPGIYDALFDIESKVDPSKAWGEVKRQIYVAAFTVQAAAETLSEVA
Measured property: Kd (nM)
Give the value in nM but do not write nM after it.

The compound identified as O=C(O)CC[C@H](NC(=O)N[C@@H](Cc1ccc(O)c(I)c1)C(=O)O)C(=O)O [DCIT] registered its Kd at 264

----------
target: PSMA on LNCaP cells (Homo sapiens); construct: LNCaP human prostate cancer cells were obtained from American Type Culture Collection; host or cells: LNCaP human prostate cancer cells; experiment: In vitro cell binding: competition with I-131 DCIT for binding to PSMA on LNCaP cells; settings: screen at 2 uM test compound
Measured property: competition with I-131 DCIT for binding to LnCap cells

Molecule	Experimental value
O=C(O)CC[C@H](NC(=O)N[C@@H](CCN(Cc1ccccn1)Cc1ccccn1)C(=O)O)C(=O)O [MIP 1028]	did not compete
NCCCC[C@H](NC(=O)N[C@@H](CCC(=O)O)C(=O)O)C(=O)O [MIP 1033]	competed
O=C(O)CC[C@H](NC(=O)N(Cc1ccccn1)Cc1ccccn1)C(=O)O [MIP 1025]	did not compete
O=C(O)CC[C@H](NC(=O)N[C@@H](CCCCN(Cc1ccccn1)Cc1ccccn1)C(=O)O)C(=O)O [MIP 1008]	competed

# credit: patent US12534429B2
